Consider the following molecules; for each one, report its IC50.
EXPERIMENTAL TARGET: Vitamin D3 receptor (Homo sapiens, UniProt P11473)
Sequence (P11473 whole entry): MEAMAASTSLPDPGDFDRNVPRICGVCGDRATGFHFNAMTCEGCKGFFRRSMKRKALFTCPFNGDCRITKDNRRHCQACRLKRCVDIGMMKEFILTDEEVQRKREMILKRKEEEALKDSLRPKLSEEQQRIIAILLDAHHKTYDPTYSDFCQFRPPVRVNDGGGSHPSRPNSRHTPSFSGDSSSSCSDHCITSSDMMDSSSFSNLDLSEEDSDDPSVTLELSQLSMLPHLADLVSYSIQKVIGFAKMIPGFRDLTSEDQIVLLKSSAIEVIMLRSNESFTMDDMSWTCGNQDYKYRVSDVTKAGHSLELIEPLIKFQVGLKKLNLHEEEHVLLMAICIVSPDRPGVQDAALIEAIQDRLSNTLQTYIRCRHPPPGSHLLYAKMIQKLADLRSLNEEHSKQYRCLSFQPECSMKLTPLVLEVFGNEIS
PROTOCOL SUMMARY: Inhibition of human VDR-coactivator interaction
Starred links: 1 amine or outer side, 2 acyl side, 3 side chain; linkers in the order of their positions; H or OH if unused. Positions of bridges follow the written chain, without caps; N, C: chain ends. Non-standard residues stand in square brackets, D forms with d. Residues, ends and D or L forms follow the SMILES beside them. hSer = N[C@@H](CCO)C(=O)O; X1 = C(CC[*:2])C[*:1]; Aib = CC(C)(N)C(=O)O
Numbers only, in µM.

# count of solved cases: 4
[[record]]
molecule = "CC(C)C[C@@H]1NC(=O)[C@H](CC(C)C)NC(=O)C(C)(C)NC(=O)[C@H](NC(=O)[C@H](CC(C)C)NC(=O)[C@@H](N)CC(C)C)COCCCCOC[C@@H](C(=O)O)NC1=O"
experimental_endpoint = "IC50"
value_reported = 610

[[record]]
molecule = "CC(C)C[C@@H]1NC(=O)[C@H](CC(C)C)NC(=O)C(C)(C)NC(=O)[C@@H](NC(=O)[C@H](CC(C)C)NC(=O)[C@@H](N)CC(C)C)CCOCCCCOC[C@@H](C(=O)O)NC1=O (H-LL[hSer][Aib]LLS-OH; linker 3-7 via X1)"
experimental_endpoint = "IC50"
value_reported = 520

[[record]]
molecule = "CC(C)C[C@@H]1NC(=O)[C@H](CC(C)C)NC(=O)C(C)(C)NC(=O)[C@@H](NC(=O)[C@H](CC(C)C)NC(=O)[C@@H](N)CC(C)C)COCCCCOC[C@@H](C(=O)O)NC1=O"
experimental_endpoint = "IC50"
value_reported = 610

[[record]]
molecule = "CC(C)C[C@@H]1NC(=O)[C@H](CC(C)C)NC(=O)C(C)(C)NC(=O)[C@@H](NC(=O)[C@H](CC(C)C)NC(=O)[C@@H](N)CC(C)C)CCOCCCCOCC[C@@H](C(=O)O)NC1=O (H-LL[hSer][Aib]LL[hSer]-OH; linker 3-7 via X1)"
experimental_endpoint = "IC50"
value_reported = 220


Give IC50 for each listed item.
1. CC(C)C[C@@H]1NC(=O)[C@H](CC(C)C)NC(=O)C(C)(C)NC(=O)[C@@H](NC(=O)[C@H](CC(C)C)NC(=O)[C@@H](N)CC(C)C)CCOCC(O)C(O)COCC[C@@H](C(=O)O)NC1=O (mixture of isomers)
2. CC(C)C[C@@H]1NC(=O)[C@H](CC(C)C)NC(=O)C(C)(C)NC(=O)[C@H](NC(=O)[C@H](CC(C)C)NC(=O)[C@@H](N)CC(C)C)COCCCCOC[C@H](C(=O)O)NC1=O
3. CC(C)C[C@@H]1NC(=O)[C@H](CC(C)C)NC(=O)C(C)(C)NC(=O)[C@@H](NC(=O)[C@H](CC(C)C)NC(=O)[C@@H](N)CC(C)C)COCCCCOC[C@H](C(=O)O)NC1=O

[3.2, 600, 430]

Source of measurements: ChEMBL document CHEMBL2406944
